- assayed-target: Substance P receptors (guinea pig NK1) (Cavia porcellus, UniProt P30547)
- Construct: from tissue; host or cells: guinea pig (Hartley) ileum LMMP, 1 μM naloxone present
- Sequence (P30547 whole entry): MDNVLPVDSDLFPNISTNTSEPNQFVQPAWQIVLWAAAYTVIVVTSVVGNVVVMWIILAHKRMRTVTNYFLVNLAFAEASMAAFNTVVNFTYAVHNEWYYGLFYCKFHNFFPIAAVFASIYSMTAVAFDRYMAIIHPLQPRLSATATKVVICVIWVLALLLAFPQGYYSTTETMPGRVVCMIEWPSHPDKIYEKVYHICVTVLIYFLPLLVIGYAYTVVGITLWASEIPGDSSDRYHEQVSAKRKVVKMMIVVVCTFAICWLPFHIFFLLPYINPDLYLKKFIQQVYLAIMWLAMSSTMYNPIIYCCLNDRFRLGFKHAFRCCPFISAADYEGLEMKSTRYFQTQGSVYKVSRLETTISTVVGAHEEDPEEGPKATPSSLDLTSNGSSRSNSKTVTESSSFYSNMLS
- method-summary: Guinea pig isolated ileum (GPI) assay with substance P stimulation in presence of 1 μM naloxone
- test-settings: GPI/LMMP SP antagonist Ke (nM), Table 35
Peptide text beside a SMILES is read from it.
measured-quantity: Kb (nM)

{"molecule": "CSCC[C@H](NC(=O)[C@H](Cc1ccccc1)NC(=O)CNC(=O)[C@@H](C)NC(=O)[C@@H](N)Cc1ccc(O)cc1)C(=O)N[C@@H](Cc1c[nH]c2ccccc12)C(=O)OCc1cc(C(F)(F)F)cc(C(F)(F)F)c1 [NP38] (HELM PEPTIDE1{Y.[dA].G.F.M.W.[FC(F)(F)c1cc(CO[*:1])cc(C(F)(F)F)c1]}$$$$V2.0; N-terminus assumed)", "measured-quantity": "Kb", "recorded-measurement": 2}
{"molecule": "C[C@@H](NC(=O)[C@H](Cc1ccccc1)NC(=O)CNC(=O)[C@@H](C)NC(=O)[C@@H](N)Cc1ccc(O)cc1)C(=O)N[C@@H](Cc1c[nH]c2ccccc12)C(=O)OCc1cc(C(F)(F)F)cc(C(F)(F)F)c1 [NP40] (HELM PEPTIDE1{Y.[dA].G.F.[dA].W.[FC(F)(F)c1cc(CO[*:1])cc(C(F)(F)F)c1]}$$$$V2.0; N-terminus assumed)", "measured-quantity": "Kb", "recorded-measurement": 608}
{"molecule": "C[C@@H](NC(=O)[C@@H](N)Cc1ccc(O)cc1)C(=O)NCC(=O)N[C@@H](Cc1ccccc1)C(=O)NCCCC(=O)N[C@@H](Cc1c[nH]c2ccccc12)C(=O)OCc1cc(C(F)(F)F)cc(C(F)(F)F)c1 [NP34] (HELM PEPTIDE1{Y.[dA].G.F.[O=C(CCCN[*:1])[*:2]].W.[FC(F)(F)c1cc(CO[*:1])cc(C(F)(F)F)c1]}$$$$V2.0; N-terminus assumed)", "measured-quantity": "Kb", "recorded-measurement": 0.96}

###

Entries and their measured Emax follow.
- assayed-target: human δ opioid receptors (hDOR) (Homo sapiens, UniProt P41143)
- Construct: expressed in transfected cells; host or cells: HN9.10 neuroblastoma cell line, pCDNA3, neomycin-selected clones
- Sequence (P41143 whole entry): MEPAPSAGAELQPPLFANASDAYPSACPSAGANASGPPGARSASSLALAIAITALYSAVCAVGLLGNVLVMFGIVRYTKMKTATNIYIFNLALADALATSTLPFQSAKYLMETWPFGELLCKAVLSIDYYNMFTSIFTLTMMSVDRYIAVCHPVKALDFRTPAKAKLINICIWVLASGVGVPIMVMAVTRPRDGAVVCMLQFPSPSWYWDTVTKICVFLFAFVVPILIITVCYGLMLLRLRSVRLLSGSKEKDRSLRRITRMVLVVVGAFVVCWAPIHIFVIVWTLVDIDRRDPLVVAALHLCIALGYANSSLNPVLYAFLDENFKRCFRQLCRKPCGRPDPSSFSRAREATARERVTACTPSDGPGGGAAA
- method-summary: [35S]GTP-γ-S binding assay, hDOR
- Format: biochemical
- test-settings: Table 39; read-out: GTP binding hDOR Emax
Peptide text beside a SMILES is read from it.
measured-quantity: Emax (%)

{"compound": "CC(C)C[C@H](NC(=O)[C@@H]1CCCN1C(=O)[C@H](Cc1ccccc1)NC(=O)[C@H](Cc1ccccc1)NC(=O)CNC(=O)[C@@H](C)NC(=O)[C@@H](N)Cc1ccc(O)cc1)C(=O)N[C@@H](Cc1c[nH]c2ccccc12)C(=O)NCc1cc(C(F)(F)F)cc(C(F)(F)F)c1 [TY015] (HELM PEPTIDE1{Y.[dA].G.F.F.P.L.W.[FC(F)(F)c1cc(CN[*:1])cc(C(F)(F)F)c1]}$$$$V2.0; N-terminus assumed)", "measured-quantity": "Emax", "recorded-measurement": 142}
{"compound": "CC(C)C[C@H](NC(=O)[C@@H]1CCCN1C(=O)[C@H](Cc1ccccc1)NC(=O)[C@H](Cc1ccccc1)NC(=O)CNC(=O)[C@@H](C)NC(=O)[C@@H](N)Cc1ccc(O)cc1)C(=O)N[C@@H](Cc1c[nH]c2ccccc12)C(=O)N(C)Cc1cc(C(F)(F)F)cc(C(F)(F)F)c1 [TY017] (HELM PEPTIDE1{Y.[dA].G.F.F.P.L.W.[CN(Cc1cc(C(F)(F)F)cc(C(F)(F)F)c1)[*:1]]}$$$$V2.0; N-terminus assumed)", "measured-quantity": "Emax", "recorded-measurement": 125}
{"compound": "CCCC[C@@H]1NC(=O)[C@H](Cc2ccccc2)NC(=O)CNC(=O)[C@H](NC(=O)[C@@H](N)Cc2ccc(O)cc2)CSSC[C@@H](C(=O)N[C@@H](Cc2c[nH]c3ccccc23)C(=O)NCc2cc(C(F)(F)F)cc(C(F)(F)F)c2)NC(=O)[C@@H]2CCCN2C1=O [TY035, [D-Cys^2, Cys^7]TY027] (HELM PEPTIDE1{Y.[dC].G.F.[Nle].P.C.W.[FC(F)(F)c1cc(CN[*:1])cc(C(F)(F)F)c1]}$PEPTIDE1,PEPTIDE1,2:R3-7:R3$$$V2.0; N-terminus assumed)", "measured-quantity": "Emax", "recorded-measurement": 11}
{"compound": "CSCC[C@H](NC(=O)[C@H](Cc1ccccc1)NC(=O)CNC(=O)[C@@H](C)NC(=O)[C@@H](N)Cc1ccc(O)cc1)C(=O)N1CCC[C@H]1C(=O)N[C@@H](CC(C)C)C(=O)N[C@@H](Cc1c[nH]c2ccccc12)C(=O)N(C)Cc1ccccc1", "measured-quantity": "Emax", "recorded-measurement": 93}
{"compound": "CSCC[C@H](NC(=O)[C@H](Cc1ccccc1)NC(=O)CNC(=O)[C@@H](C)NC(=O)[C@@H](N)Cc1c(C)cc(O)cc1C)C(=O)N1CCC[C@H]1C(=O)N[C@@H](CC(C)C)C(=O)N[C@@H](Cc1c[nH]c2ccccc12)C(=O)NCc1ccccc1", "measured-quantity": "Emax", "recorded-measurement": 21}
{"compound": "CSCC[C@H](NC(=O)[C@H](Cc1ccccc1)NC(=O)CNC(=O)[C@@H](C)NC(=O)[C@@H](N)Cc1ccc(O)cc1)C(=O)N[C@H](CC(C)C)C(=O)N[C@@H](CC(C)C)C(=O)N[C@@H](Cc1c[nH]c2ccccc12)C(=O)OCc1cc(C(F)(F)F)cc(C(F)(F)F)c1 [TY021] (HELM PEPTIDE1{Y.[dA].G.F.M.[dL].L.W.[FC(F)(F)c1cc(CO[*:1])cc(C(F)(F)F)c1]}$$$$V2.0)", "measured-quantity": "Emax", "recorded-measurement": 41.1}

###

- method-summary: Octanol/saline distribution (logD7.4)
- Type: physicochemical
- test-settings: 0.05 N HEPES buffer in 0.1 N NaCl
Entries and their measured logD7.4 follow.

{"sample-smiles": "CSCC[C@H](NC(=O)[C@H](Cc1ccccc1)NC(=O)CNC(=O)[C@@H](C)NC(=O)[C@@H](N)Cc1ccc(O)cc1)C(=O)N1CCC[C@H]1C(=O)N[C@@H](CC(C)C)C(=O)N[C@@H](Cc1c[nH]c2ccccc12)C(=O)OCc1cc(C(F)(F)F)cc(C(F)(F)F)c1", "logD7.4": ">4.0"}
{"sample-smiles": "CC(C)C[C@H](NC(=O)[C@@H]1CCCN1C(=O)[C@H](Cc1ccccc1)NC(=O)CNC(=O)[C@@H](C)NC(=O)[C@@H](N)Cc1ccc(O)cc1)C(=O)N[C@@H](Cc1c[nH]c2ccccc12)C(=O)NCc1cc(C(F)(F)F)cc(C(F)(F)F)c1", "logD7.4": ">4"}
{"sample-smiles": "CSCC[C@H](NC(=O)[C@H](Cc1ccccc1)NC(=O)CNC(=O)[C@@H](C)NC(=O)[C@@H](N)Cc1ccc(O)cc1)C(=O)N1CCC[C@H]1C(=O)N[C@@H](CC(C)C)C(=O)N[C@@H](Cc1c[nH]c2ccccc12)C(=O)NCc1cc(C(F)(F)F)cc(C(F)(F)F)c1", "logD7.4": ">4.0"}
{"sample-smiles": "CC(C)C[C@H](NC(=O)[C@@H]1CCCN1C(=O)[C@H](Cc1ccccc1)NC(=O)CNC(=O)[C@@H](C)NC(=O)[C@@H](N)Cc1ccc(O)cc1)C(=O)N[C@@H](Cc1c[nH]c2ccccc12)C(=O)N(C)Cc1cc(C(F)(F)F)cc(C(F)(F)F)c1", "logD7.4": ">4"}

###

- assayed-target: rat μ opioid receptors (rMOR) (Rattus norvegicus, UniProt P33535)
- Construct: expressed in transfected cells; host or cells: HN9.10 neuroblastoma cell line, pCDNA3, neomycin-selected clones
- Sequence (P33535 whole entry): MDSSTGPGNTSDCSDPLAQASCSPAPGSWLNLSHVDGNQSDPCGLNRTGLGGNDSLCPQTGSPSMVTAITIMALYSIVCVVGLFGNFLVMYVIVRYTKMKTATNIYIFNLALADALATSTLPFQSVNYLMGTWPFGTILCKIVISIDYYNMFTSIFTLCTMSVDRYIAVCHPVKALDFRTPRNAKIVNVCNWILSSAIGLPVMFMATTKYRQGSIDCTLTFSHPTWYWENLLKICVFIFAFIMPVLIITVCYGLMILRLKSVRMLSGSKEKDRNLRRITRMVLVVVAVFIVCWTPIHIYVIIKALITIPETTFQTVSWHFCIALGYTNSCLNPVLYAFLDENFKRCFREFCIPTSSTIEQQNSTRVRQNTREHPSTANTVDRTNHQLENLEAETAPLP
- method-summary: biochemical
- Format: biochemical
- test-settings: Table 39; read-out: GTP binding rMOR Emax
Bridge positions count the residues as written; N and C are the ends. Square brackets hold non-standard residues; d marks the D form. Peptide text beside a SMILES is read from it. * marks the point of attachment. NH(3,5-(CF3)2-benzyl) = FC(F)(F)c1cc(CN*)cc(C(F)(F)F)c1; dPen = CC(C)(S)[C@@H](N)C(=O)O; Nle = CCCC[C@H](N)C(=O)O
Entries and their measured Emax follow.

{"compound": "CC(C)C[C@H](NC(=O)[C@@H]1CCCN1C(=O)[C@H](Cc1ccccc1)NC(=O)[C@H](Cc1ccccc1)NC(=O)CNC(=O)[C@@H](C)NC(=O)[C@@H](N)Cc1ccc(O)cc1)C(=O)N[C@@H](Cc1c[nH]c2ccccc12)C(=O)OCc1ccccc1 [TY014] (HELM PEPTIDE1{Y.[dA].G.F.F.P.L.W.[c1ccc(CO[*:1])cc1]}$$$$V2.0; N-terminus assumed)", "Emax [%]": 72.3}
{"compound": "COc1cc(COC(=O)[C@H](Cc2c[nH]c3ccccc23)NC(=O)[C@H](CC(C)C)NC(=O)[C@@H]2CCCN2C(=O)[C@H](CCSC)NC(=O)[C@H](Cc2ccccc2)NC(=O)CNC(=O)[C@@H](C)NC(=O)[C@@H](N)Cc2ccc(O)cc2)cc(OC)c1", "Emax [%]": 59}
{"compound": "CSCC[C@H](NC(=O)[C@H](Cc1ccccc1)NC(=O)CNC(=O)[C@@H](C)NC(=O)[C@@H](N)Cc1ccc(O)cc1)C(=O)NC(C)(C)C(=O)N[C@@H](CC(C)C)C(=O)N[C@@H](Cc1c[nH]c2ccccc12)C(=O)OCc1cc(C(F)(F)F)cc(C(F)(F)F)c1", "Emax [%]": 32}
{"compound": "CSCC[C@H](NC(=O)[C@H](Cc1ccccc1)NC(=O)CNC(=O)[C@@H](C)NC(=O)[C@@H](N)Cc1ccc(O)cc1)C(=O)N1CCC[C@H]1C(=O)N[C@@H](CC(C)C)C(=O)N[C@@H](Cc1c[nH]c2ccccc12)C(=O)OCc1ccccc1", "Emax [%]": 133}
{"compound": "CSCC[C@H](NC(=O)[C@H](Cc1ccccc1)NC(=O)CNC(=O)[C@@H](C)NC(=O)[C@@H](N)Cc1c(C)cc(O)cc1C)C(=O)N1CCC[C@H]1C(=O)N[C@@H](CC(C)C)C(=O)N[C@@H](Cc1c[nH]c2ccccc12)C(=O)NCc1ccccc1", "Emax [%]": 58}
{"compound": "CSCC[C@H](NC(=O)[C@H](Cc1ccccc1)NC(=O)CNC(=O)[C@@H](C)NC(=O)[C@@H](N)Cc1ccc(O)cc1)C(=O)N[C@H](CC(C)C)C(=O)N[C@@H](CC(C)C)C(=O)N[C@@H](Cc1c[nH]c2ccccc12)C(=O)OCc1cc(C(F)(F)F)cc(C(F)(F)F)c1 [TY021] (HELM PEPTIDE1{Y.[dA].G.F.M.[dL].L.W.[FC(F)(F)c1cc(CO[*:1])cc(C(F)(F)F)c1]}$$$$V2.0)", "Emax [%]": 51.4}
{"compound": "CC(C)C[C@H](NC(=O)[C@@H]1CCCN1C(=O)[C@H](Cc1ccccc1)NC(=O)[C@H](Cc1ccccc1)NC(=O)CNC(=O)[C@@H](C)NC(=O)[C@@H](N)Cc1ccc(O)cc1)C(=O)N[C@@H](Cc1c[nH]c2ccccc12)C(=O)OCc1cc(C(F)(F)F)cc(C(F)(F)F)c1", "Emax [%]": 36.3}
{"compound": "CC(C)C[C@H](NC(=O)[C@@H]1CCCN1C(=O)[C@@H](Cc1ccccc1)NC(=O)[C@H](Cc1ccccc1)NC(=O)CNC(=O)[C@@H](C)NC(=O)[C@@H](N)Cc1ccc(O)cc1)C(=O)N[C@@H](Cc1c[nH]c2ccccc12)C(=O)OCc1cc(C(F)(F)F)cc(C(F)(F)F)c1", "Emax [%]": 23.6}
{"compound": "CCCC[C@@H]1NC(=O)[C@H](Cc2ccccc2)NC(=O)CNC(=O)[C@H](NC(=O)[C@@H](N)Cc2ccc(O)cc2)C(C)(C)SSC(C)(C)[C@H](C(=O)N[C@@H](Cc2c[nH]c3ccccc23)C(=O)NCc2cc(C(F)(F)F)cc(C(F)(F)F)c2)NC(=O)[C@@H]2CCCN2C1=O [TY048] (H-Y[dPen]GF[Nle]P[dPen]W-{NH(3,5-(CF3)2-benzyl)}; disulfide 2-7; N-terminus assumed)", "Emax [%]": 29}
